All values here come from PubChem BioAssay.

Test: inhibition of 3D7 malaria parasite growth – strain 3D7 (AID 2306);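 note: 0% = DMSO wells and 100% = chloroquine plus artemisinin control wells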
Conditions: P. falciparum 3D7 erythrocytic growth, LDH absorbance, 72 h; at 2 µM; hits give high values
The source made the active and inactive calls. The rule behind the calls is not given here.
Parameter growth inhibition: see the listing below.

These recorded examples may help you get a feel for the data.
chemSmiles	growth inhibition
O=C(Nc1cccc(-c2ccc(-c3nc4ccc(F)cc4[nH]3)cc2)c1)c1ccncc1	101% (active)
Cc1sc(CNCCCNc2cc(=O)c3ccccc3[nH]2)c(I)c1C	94% (active)
Fc1cccc(COc2ccc(Nc3ncnc4sc(C#Cc5ncc[nH]5)cc34)cc2Cl)c1	100% (active)
Cc1cccc2[nH]c(-c3ccc(-c4cccc(NC(=O)Cc5cnc[nH]5)c4)cc3)nc12	98% (active)
COc1ccc2c(NN=Cc3cccnc3)cc(C)nc2c1	85% (active)
O=C(Nc1ccc(-c2ccc(-c3nc4ccccc4[nH]3)s2)cc1)Nc1ccc(F)c(F)c1F	99% (active)
CNCCNCc1ccc(-c2ccc(-c3nc4ccc(F)cc4[nH]3)cc2)cc1	98% (active)
O=C(Nc1cc(Cl)cc(Cl)c1)Nc1ccccc1C(=O)NC1CCCCC1	101% (active)

QUERY: State its growth inhibition for this molecule: CN1CCC(NCc2ccc(-c3cnc(NCc4ccccc4)nc3)cc2)CC1
RESULT: 91% (active)

QUERY: State its growth inhibition for this molecule: COc1ccc2nccc([C@@H](O)CNCCCN(C)CCOc3cc(F)cc(F)c3)c2c1
RESULT: 99% (active)

----------
Parameter growth inhibition: see the listing below.
Test: inhibition of 3D7 malaria parasite growth – strain 3D7 (AID 2306);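 note: 0% = DMSO wells and 100% = chloroquine plus artemisinin control wells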
Conditions: P. falciparum 3D7 erythrocytic growth, LDH absorbance, 72 h; at 2 µM; hits give high values
The answer is to be given in %; state only the numeric part.

These recorded examples may help you get a feel for the data.
molecule	unitOfMeasure	numericValue
CCCCNC(=O)[C@H](CC1CCCCC1)NC(=O)c1ccc(O)c(-c2ccc(OC)cc2)c1	%	89
O=c1cc(NCCCNCc2cccc(C(F)(F)F)c2Cl)[nH]c2ccccc12	%	94
CCN(CC)c1ccc(C(c2ccc(N(CC)CC)cc2)c2ccc([N+](=O)[O-])cc2)cc1	%	82
O=C(C=Cc1ccc(Cl)c(Cl)c1)NCCCCCN1CCC(CCNC(=O)c2sc3ccccc3c2Cl)CC1	%	88
O=C(NCC1CCN(Cc2ccc3c(c2)OCCO3)C1)c1cc(-c2ccccc2F)cs1 (stereo not drawn)	%	95

QUERY: State its growth inhibition for this molecule: CC=CC(=O)N1CCN(c2nccc(-c3ccc(C(C)(C)C)cc3)n2)CC1
RESULT: 95

QUERY: State its growth inhibition for this molecule: COc1ccc(Nc2nc(NC3CCCC3)cc(-c3ccc(OC)cc3)n2)cc1
RESULT: 86

----------
Experiment: human hepatoma cell viability loss – ATP luminescence, cytotoxicity control for P. falciparum antimalarial project, primary screen (AID 2303);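 note: 0% = DMSO wells and 100% = digitonin-killed cells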
Details: HepG2 viability, 24-48 h, at 10 µM, hits give high values
valueKind: inhibition (%)
The answer is to be given in %; state only the numeric part.

chemSmiles	inhibition (%)
CCN(CCN(C)C)Cc1ccc(-c2ccc(NS(=O)(=O)c3cccc4cccnc34)cc2)cc1	16
CC(C)Cc1ccc(N2CCN(CCCCNC(=O)c3ccc(NC(=O)c4cc(C(F)(F)F)cc(C(F)(F)F)c4)cc3)CC2)cc1	15
CCOC(=O)N[C@@H]1CN[C@@H](C#Cc2cc3c(Nc4ccc(OCc5cccc(F)c5)c(Cl)c4)ncnc3s2)C1	8

QUERY: State its inhibition for this molecule: Cc1ccc(NC(=O)c2cc(Br)cc(N3CCCN(C)CC3)c2)cc1F
RESULT: 15

----------
Experiment: antimalarial activity against Dd2 strain (AID 2302);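 note: 0% = DMSO untreated growth and 100% = chloroquine plus artemisinin killed control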
Settings: P. falciparum Dd2 in RBCs, LDH growth readout, 72 h; at 2 µM; hits give high values
Output true for growth inhibition not less than 80%; output false otherwise.

Take a look at these entries with their results.
compound	category
Cc1cc(N[C@@H](CC(C)C)C(=O)Nc2ccccc2)nc(NCCc2ccc(F)cc2)n1	true
CN1CCN(CCCN(Cc2cccc(-c3ccc(CNCc4ccc5c(c4)OCO5)cc3)c2)C(=O)CCC2CCCC2)CC1	true
Cc1ccc(C(C(=O)Nc2ccc(N3CCNCC3)c(Cl)c2)c2ccccc2)cc1 (centres undefined)	true
N#Cc1ccc(NC(=O)NC2CCN(CCCCCNC(=O)/C=C/c3ccc(Cl)c(Cl)c3)CC2)cc1	false
CN1CCN(CC(=O)Nc2ccc(-c3cccc(-c4nc5ccc(C(F)(F)F)cc5[nH]4)c3)cc2)CC1	true
c1ccc(CNCc2cccc(-c3ccc(-c4nc5ccccc5[nH]4)cc3)c2)cc1	false
CC1CN(Cc2ccccc2)CCN1c1ccc(NC(=O)c2cccs2)cc1 (centres undefined)	true
O=C(Nc1ccc(OC2CCN(Cc3ccc(F)cc3)C2)cc1)c1ccco1 (centres undefined)	false

API: the following record is the query input.
QUERY: Item Clc1ccc(-c2cc(-c3csc(NCCN4CCOCC4)n3)on2)c(Cl)c1 with growth inhibition of 80% or above?
RESULT: true

----------
Assay: antimalarial activity against Dd2 strain (AID 2302);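 note: 0% = DMSO untreated growth and 100% = chloroquine plus artemisinin killed control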
Conditions: P. falciparum Dd2 in RBCs, LDH growth readout, 72 h; at 2 µM
Calls of active or inactive are those of the source.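 Rule for the calls: active = growth inhibition above 50% at the single 2 µM test dose, taken to imply half-maximal potency below 2 µM; inactive = the rest.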
The reply should be one of these categories: true (1) for active, false (0) for inactive

compound	category
COc1cc2ncnc(Nc3ccc(OCc4ccccc4Br)c(Cl)c3)c2cc1OC	false (0)

QUERY: Entry O=C(Cn1c(CCc2cccc(F)c2F)cc(=O)c2ccccc21)N(CCN1CCCC1)Cc1ccc(-c2ccc(C(F)(F)F)cc2)cc1 : call = ?
RESULT: true (1)

QUERY: Entry Cc1cccc2[nH]c(-c3ccc(-c4ccc(CN5CCN(CCC#N)CC5)cc4)cc3)nc12 : call = ?
RESULT: false (0)

QUERY: Entry O=C(Nc1ccc(C(=O)Nc2cccc(C3=NCCN3)c2)cc1)Nc1ccc(C2=NCCN2)cc1 : call = ?
RESULT: true (1)

QUERY: Entry NC1CCN(CCc2ccc(NS(=O)(=O)c3cccc4ccccc34)cc2)CC1 : call = ?
RESULT: false (0)

QUERY: Entry CCN(c1ccccc1)S(=O)(=O)c1ccc(OC)c(NC(=O)c2cccc(C(F)(F)F)c2)c1 : call = ?
RESULT: true (1)

----------
Parameter growth inhibition: see the listing below.
Assay: inhibition of 3D7 malaria parasite growth – strain 3D7 (AID 2306);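 note: 0% = DMSO wells and 100% = chloroquine plus artemisinin control wells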
Conditions: P. falciparum 3D7 erythrocytic growth, LDH absorbance, 72 h; at 2 µM; hits give high values
The answer is to be given in %; state only the numeric part.

QUERY: State its growth inhibition for this compound: Cc1cccc2[nH]c(-c3cccc(-c4cccc(C(=O)N5CCCCC5CN5CCC(O)C5)c4)c3)nc12 (centres undefined)
RESULT: 89

----------
Experiment: antimalarial activity against Dd2 strain (AID 2302);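 note: 0% = DMSO untreated growth and 100% = chloroquine plus artemisinin killed control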
Conditions: P. falciparum Dd2 in RBCs, LDH growth readout, 72 h; at 2 µM; hits give high values
valueKind: growth inhibition (%)
The answer is to be given in %; state only the numeric part.

molecule	valueKind	unitOfMeasure	numericValue
Cc1cccc(CN2CCCN(Cc3ccc(C(=O)Nc4ccc(C(C)(C)C)cc4)cc3)CC2)c1	growth inhibition	%	4
CC1CC(NCCCNc2cc(=O)c3ccccc3[nH]2)c2c(Cl)c(Cl)cc(Cl)c21 (centres undefined)	growth inhibition	%	52
O=C(Nc1ccc(C(F)(F)F)cc1)N[C@H]1CCN(CCCCCNC(=O)[C@@H]2C[C@H]2c2ccc(Cl)c(Cl)c2)C1	growth inhibition	%	-1
O=C(Nc1ccc(Oc2ccccc2)cc1)N[C@H]1CCN(Cc2ccc(OCCCN3CCCCC3)cc2)C1	growth inhibition	%	6
C(=N\Nc1nccc2sc(-c3cccnc3)cc12)/c1ccncc1	growth inhibition	%	94

QUERY: State its growth inhibition for this molecule: CCC(C)NS(=O)(=O)c1ccc2nc(Nc3ccc(C)cc3)n(C3CCCCC3)c2c1 (centres undefined)
RESULT: 97

QUERY: State its growth inhibition for this molecule: CCCCOc1cc(OC)c2ccccc2c1CCNCCCCNCCc1c(OCCCC)cc(OC)c2ccccc12
RESULT: 82

QUERY: State its growth inhibition for this molecule: COC(=O)C1(NC(=O)c2ccc(-n3nc(C)c(-c4ccccc4)c3N)cc2)CCCC1
RESULT: 81

----------
Assay: inhibition of 3D7 malaria parasite growth – strain 3D7 (AID 2306);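 note: 0% = DMSO wells and 100% = chloroquine plus artemisinin control wells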
Settings: P. falciparum 3D7 erythrocytic growth, LDH absorbance, 72 h; at 2 µM; hits give high values
Activity calls are given as the source filed them. The rule behind the calls is not given here.
valueKind: growth inhibition

These recorded examples may help you get a feel for the data.
molecule	growth inhibition
COc1ccc(N2CCN(CCCCNC(=O)c3ccc(NC(=O)c4cc(C(F)(F)F)cc(C(F)(F)F)c4)cc3)CC2)c(OC)c1	100% (active)
CCCCCCCc1c2c(C)c(C(=O)OCC)nc-2cc2n1CC(C)=C2C	89% (active)
Cc1cc(=O)c(-c2ccc(OCc3ccc(OC(F)(F)F)cc3)cc2)c(C)[nH]1	97% (active)
COc1cc(C(=O)Nc2cccc(-c3nc4ccccc4[nH]3)c2)cc(OC)c1OC	99% (active)
COc1ccc2nccc([C@@H](O)CN3CCC(NCCOc4cccc(F)c4F)CC3)c2c1	102% (active)
COc1cc2nc(NC3CCN(Cc4ccccc4)CC3)nc(N)c2cc1OC	101% (active)

QUERY: State its growth inhibition for this molecule: Nc1ncc(-c2ccc(NC(=O)Nc3cc(C(F)(F)F)ccc3F)cc2)c(N)n1
RESULT: 99% (active)

QUERY: State its growth inhibition for this molecule: O=c1cc(NCCCNCc2ccc(Cl)c(Cl)c2)[nH]c2ccc(Cl)cc12
RESULT: 101% (active)

QUERY: State its growth inhibition for this molecule: Cc1cc(C(F)(F)F)n2nc(C3CCN(Cc4cc(C)c(O)c(C)c4)C3)cc2n1 (centres undefined)
RESULT: 98% (active)
